experiment: Plasma protein binding in dog; format: ADME, cell-free, Canis lupus familiaris; conditions: read-out: PPB (converted)
readout_kind: fraction unbound

# lookup: fraction unbound of CN1Cc2cc3c(cc2C1)C(=O)N(C1CCC(=O)NC1=O)C3=O (stereo unspecified)
0.83

====

assay: Drug concentration in plasma of CB17 SCID mouse xenografted with human MCF7 cells harboring wild type ESR1 at 10 mg/kg, po qd for 3 days and measured after 6 hrs last dose by LC-MS/MS analysis; type: ADME, organism-based; conditions: time 3 day
readout_kind: concentration at 72 h

# lookup: concentration at 72 h of C[C@@H]1Cc2c(ccc3[nH]ncc23)[C@@H](c2c(F)cc(N3CCC4(CCN(C(=O)CN5Cc6cc7c(cc6C5)C(=O)N(C5CCC(=O)NC5=O)C7=O)CC4)CC3)cc2F)N1CC(F)F (stereo partly specified)
433 ng/mL
